assay: qHTS of pediatric cancer cell lines to identify multiple opportunities for drug repurposing: Primary screen for OHS-50 cells (AID 1347103); conditions: OHS-50 osteosarcoma viability, CellTiter-Glo luminescence, 48 h; series mostly up to 57.3 µM; note: nearly all actives have a fitted effect of over 40% in size
Inconclusive results are not listed. Activity calls are given as the source filed them. Calls come from the whole dose curve; as a rule, active = well fitted cell-killing curve with a large enough effect; inconclusive = small, poorly fitted or top-dose-only effect; inactive = no such curve, though single readings can be large or run the other way.
Hi there, use one of these labels in your reply, thanks! YES for active, NO for inactive

Query string: Identify the outcome logged in this assay for the compound shown: C=C1C(=CC=C2CCC[C@]3(C)[C@@H]([C@H](C)CCCC(C)(C)O)CC[C@@H]23)C[C@@H](O)C[C@@H]1O
Result string: YES

Query string: And what about the compound NC(=O)c1ncn([C@@H]2O[C@H](CO)[C@@H](O)[C@@H]2O)c1O ?
Result string: NO

Query string: Also, CC(O)(C#Cc1ccc2c(c1)N(c1nc(N)ncc1Cl)CC2)c1nccs1 (stereo not drawn) please.
Result string: YES

Query string: Then this compound: CC[C@@]1([C@@H]2O[C@@H]([C@H]3O[C@@](O)(CO)[C@H](C)C[C@H]3C)C[C@H]2C)CC[C@H]([C@]2(C)CC[C@]3(C[C@H](O)[C@@H](C)[C@@H]([C@@H](C)[C@@H](OC)[C@H](C)C(=O)O)O3)O2)O1
Result string: YES

Query string: And what about the compound COc1cc(C)c(C=CC(C)=CC=CC(C)=CC(=O)O)c(C)c1C ?
Result string: YES

Query string: Another: C#Cc1cccc(Nc2ncnc3cc(OCCOC)c(OCCO)cc23)c1
Result string: YES

Query string: Lookup C=C1CCC2[C@](C)(CO)C(O)CC[C@]2(C)C1CC=C1C(=O)OCC1O (stereo partly drawn)
Result string: NO

Query string: Same for O=c1c(O)c(-c2ccc(O)c(O)c2)oc2cc(O)ccc12
Result string: YES
